- Assay details: yeast display, Sf9 membrane polyspecificity reagent, FACS + sequencing; frameworks hold sequencing errors
Measured attribute: polyreactivity (PSR sort gate)

Known polyreactivity (PSR sort gate) results, listed for orientation:
Biopolymer sequence	Endpoint value
QVQLVESGGGLVQAGGSLRLSCAASGGTFRPYAMGWYRQAPGKERELVATIRSSGGRTYYADSVKGRFTISRDNAKNTVYLQMISLKPEDTAVYSCAADRTRGYGNDYWGQGTQVTVSS	high polyreactivity
QVQLVESGGGLVQAGGSLRLSCAASGFTFYSYAMGWYRQAPGKERELVAAISWSGTRTYYADSVKGRFTISRDNAKNTVYLQMNSLKPEDTAVYYCAARGYRYGYGYWGQGTQVTVSS	high polyreactivity
QVQHVESGGGLVQAGGSLRLSCAASGSTFWNKAMGWYRQAPGKEREFVAAITRSTTSTYYADSVKGRFTISRDNAKNTVYLQMNSLKPEDTAVYFCAADTDIVLYDYWGQGTQVTVSS	low polyreactivity
QVQIVESGGGLVQAGGSLRLSCAASGSISVANAMGWYRQAPGKDRELVAAITDSGDDTYYADSVKGRFTISRDIAKNTVYLQMNSLKPEDTAVYYCAVEAWSVPPYDYWGQGTQVTVSS	low polyreactivity

Let us move to another entry and its polyreactivity (PSR sort gate).
Param item = QVQLVDSGGGLVQAGGSLRISCPASGRIIDLNARGWYRQAPGKERELVAAISYSGGRTFYADSVKGRFTISRDNAKNTVDLQMISLKPEVTAVYYCNVRRGDRFVRHDYWGQGSQVTVSS ; retrieve measured polyreactivity (PSR sort gate).
low polyreactivity

###

- Assay details: yeast display, Sf9 membrane polyspecificity reagent, FACS + sequencing; frameworks hold sequencing errors
Measured attribute: polyreactivity (PSR sort gate)

Example sequences with recorded polyreactivity (PSR sort gate):
Biopolymer sequence	polyreactivity (PSR sort gate)
QVQLVESGGGLVQAGGSLRLSCAASGRIFRGYAMGWYRQAPGKERELVATISAIGGSTYADSVKGRFTISRDNAKNTVYLQMNSLKPEDTAVYYCNVRKVYRYQYRFEYWGQGTQVTVSS	high polyreactivity
QVQLVESGGGLVQAGGSLRLSCAASGGIFGYYTMGWYRQAPGKERELVAAITWRGSTYYADSVKGRFTISRDNAKNTVYLQMNSLKPEDTAVYYCAARYYSPYGYCGQGTQVTVSS	high polyreactivity
QVQLVESGGGLVQAGGSLRLSCAASGNTFYRYAMGGYRQSPGKERELVAAITWSGSRTYYADSVKGRFTISRDNAKYTVYLQMNRLKPEDTAVYYCAAPFWYVGPAMDYWGQGTQVTVSS	low polyreactivity
QVQLVESVGGLVQAGGRLRLSCAASGLIFDDYSMGCYRQAPGKEREFVSAISWSDGTTYYADSVKGRFTISRDNAKNTVYLQMNSLKPEDTAVYYCAARLARAGYWRRNYYYWGQGTQVTVSS	high polyreactivity
QVQLVESCGGLVQAGGSLRLSCAASGLIIRWYAMGWYRQAPGKERELVAAITRAGSTYYADSVKWRFTISRDNAKNTVYLQMNSLNPEDTAVYYCAADTNWSPGYIMYYRSDYWGQGTQVTVSS	low polyreactivity
QVQLVESGGGLVQAGGSLRLSCAASGRIFYGYAMGWYIQAPGKERELVAAITYIGGTYYADSVKGRFTISRDNAKNTVYLQMNSQKPEDTSVYYCASEPFYNFVYYTYPYWYDYWGQGTQVTVSS	low polyreactivity
QVQLVESRGGLVQAGGSLRLSCAASGSNFYRNALGWYRQAPGKERELVAAISSDGSTNYADSVKGRFTISRDNAKNTVYLQLNSLKPEDTAVYSCAPHDRWHHRSLPYEYWGQGTQVTVSS	low polyreactivity
QDQLVESGGGLVQAGGSLRLSCAASGRINAMGWYRQAPGKERELVAVITLRGGSTYYADSVKGRFTISRDNAKNTVYLQMNSLKPEDTAVYYCAAETLVSFWFDYWGQGTQVTVSS	low polyreactivity
QLQLVESGGGLVQAGGSLRLSCAASRRIFDRNAMGWYRQAPGKERELVARIDPGDDTNYADSVKGRFTISRDNAKNTVSLQMNSLKPEDSAVYYCATDPDYVLYRTAYYEYDYWGLGTQVTVSS	low polyreactivity
QVQLVESGGGLVQAGGSLRLSCAASGRIKGKNAMGWYRQAPGKERELVAAISSTGSTYYADSVKGRFSISRDNAKNTVYLQMNSLKPEDTAVYYCAATVEWWPGGWFDYWGQGTQVTVSS	high polyreactivity

Fill in the blank: the reported polyreactivity (PSR sort gate) of QVQLVESGGGLVQAGGSLRLSSAASGSTFAYYAMGWYRQEPAKEGELVASISWRGGSTYYADSVKGRFTISRDNAKNTVYLQMNSLKPEDTAVYYCAARSTYRPWLLSAYGYWGQGTQVTVSS is ____.
low polyreactivity
